target: human platelets (uptake via SERT) (Homo sapiens, UniProt P31645); construct: endogenous in cells; host or cells: human platelets in platelet-rich plasma from patients with polycythemia vera or secondary polycythemia; experiment: [3H]serotonin uptake inhibition in isolated human platelets; assay type: cell-based; conditions: 10^−8 M substrate, 37 °C, 15 min
Sequence (P31645 whole entry): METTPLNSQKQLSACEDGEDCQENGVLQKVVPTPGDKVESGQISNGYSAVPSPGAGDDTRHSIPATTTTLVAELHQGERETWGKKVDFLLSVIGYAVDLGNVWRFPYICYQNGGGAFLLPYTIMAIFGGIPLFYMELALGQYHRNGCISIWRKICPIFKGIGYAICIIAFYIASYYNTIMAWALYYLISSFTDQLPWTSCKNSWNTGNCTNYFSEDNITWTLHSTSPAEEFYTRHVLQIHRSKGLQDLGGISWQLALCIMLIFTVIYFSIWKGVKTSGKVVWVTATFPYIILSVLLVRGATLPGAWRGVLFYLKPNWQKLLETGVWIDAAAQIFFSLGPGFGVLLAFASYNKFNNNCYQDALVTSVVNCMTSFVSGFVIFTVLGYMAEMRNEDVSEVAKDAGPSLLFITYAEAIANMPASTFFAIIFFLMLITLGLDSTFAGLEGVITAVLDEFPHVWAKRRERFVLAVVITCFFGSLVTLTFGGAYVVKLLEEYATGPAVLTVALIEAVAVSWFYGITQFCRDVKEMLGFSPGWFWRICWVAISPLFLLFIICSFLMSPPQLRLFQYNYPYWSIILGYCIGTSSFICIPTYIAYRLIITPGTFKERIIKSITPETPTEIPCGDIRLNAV
Counter-ions that a name gives are not always drawn.
observation-type: IC50 (nM)
Could you give me the number in nM? Just the number is fine.

What IC50 value was documented for this compound, CC(N)C(=O)OC(C)(C)Cc1ccc(Cl)cc1 (stereo not shown) [Alaproclate, alaproclate-HCl] ?
516

* * *

target: human SK-N-SH neuroblastoma cells (uptake via NET) (Homo sapiens, UniProt P23975); construct: host or cells: SK-N-SH human neuroblastoma cells; assay: [125I]MIBG uptake inhibition in cultured SK-N-SH neuroblastoma cells; format: cell-based; settings: 10^−8 M substrate, 37 °C, 4 h; read-out: IC50 of uptake inhibition, SK-N-SH, [125I]MIBG
Sequence (P23975 whole entry): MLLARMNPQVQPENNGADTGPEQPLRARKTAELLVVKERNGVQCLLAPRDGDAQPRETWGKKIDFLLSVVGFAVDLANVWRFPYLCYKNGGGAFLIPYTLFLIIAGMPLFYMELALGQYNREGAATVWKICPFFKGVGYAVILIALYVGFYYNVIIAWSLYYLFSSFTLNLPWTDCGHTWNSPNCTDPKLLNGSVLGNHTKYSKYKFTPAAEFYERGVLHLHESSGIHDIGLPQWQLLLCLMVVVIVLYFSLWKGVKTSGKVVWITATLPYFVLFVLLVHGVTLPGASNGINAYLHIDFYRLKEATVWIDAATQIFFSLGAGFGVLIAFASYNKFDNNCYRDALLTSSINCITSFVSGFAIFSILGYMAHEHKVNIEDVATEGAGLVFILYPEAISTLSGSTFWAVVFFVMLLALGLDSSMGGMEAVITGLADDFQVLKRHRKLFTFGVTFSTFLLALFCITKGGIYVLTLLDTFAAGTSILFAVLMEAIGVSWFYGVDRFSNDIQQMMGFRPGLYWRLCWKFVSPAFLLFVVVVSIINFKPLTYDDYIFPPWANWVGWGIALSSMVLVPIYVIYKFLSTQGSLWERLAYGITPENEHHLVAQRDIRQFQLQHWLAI
Structures can show the parent of a compound that is named as a salt.
observation-type: IC50
State the value with its unit after it.

What measured IC50 goes with NCCC(Oc1ccc(C(F)(F)F)cc1)c1ccccc1 (stereo not shown) [Norfluoxetine, norfluoxetine-HCl] ?
2760 nM

* * *

target: human SK-N-SH neuroblastoma cells (uptake via NET) (Homo sapiens, UniProt P23975); construct: host or cells: SK-N-SH human neuroblastoma cells; assay: [125I]MIBG uptake inhibition in cultured SK-N-SH neuroblastoma cells; format: cell-based
Structures can show the parent of a compound that is named as a salt.
observation-type: IC50 (µM)
Respond numerically; units are µM and should not be typed.

Short answer please: IC50, human SK-N-SH neuroblastoma cells (uptake via NET) (Homo sapiens, UniProt P23975), entry CC(N)C(=O)OC(C)(C)Cc1ccc(Cl)cc1 (stereo not shown) [Alaproclate, alaproclate-HCl]
43.4
